# subject_of_test: T1, human δ opioid receptor (human, UniProt P41143 1-372)
# T1 construct: whole, on cells; Assayed as membrane preparations of transfected cells; also called hDOR; DOR
# measurement_description: competition vs [3H]DPDPE, membranes of hDOR-transfected HN9.10 cells
Square brackets hold non-standard residues; d marks the D form. * marks the point of attachment. OBzl(3,5-(CF3)2) = FC(F)(F)c1cc(CO*)cc(C(F)(F)F)c1; Met(O) = CS(=O)CC[C@H](N)C(=O)O
property: LogIC50
Answer using only a numeral; do not append any unit.

Below: 5 binders and their reported LogIC50.
1. H-Y[dA]GFLPLW-{OBzl(3,5-(CF3)2)} (also: TFA salt, TFA salt; also called TY004) [H-Tyr-D-Ala-Gly-Phe-Leu-Pro-Leu-Trp-O-3,5-Bzl(CF3)2]
-7.97
2. H-Y[dA]GFGPLW-{OBzl(3,5-(CF3)2)} (also: TFA salt, TFA salt; also called TY006) [H-Tyr-D-Ala-Gly-Phe-Gly-Pro-Leu-Trp-O-3,5-Bzl(CF3)2]
-7.11
3. H-Y[dA]GFFPLW-{OBzl(3,5-(CF3)2)} (also: TFA salt, TFA salt; also called TY003) [H-Tyr-D-Ala-Gly-Phe-Phe-Pro-Leu-Trp-O-3,5-Bzl(CF3)2]
-7.5
4. H-Y[dA]GF[dF]PLW-{OBzl(3,5-(CF3)2)} (also: TFA salt, TFA salt; also called TY007) [H-Tyr-D-Ala-Gly-Phe-D-Phe-Pro-Leu-Trp-O-3,5-Bzl(CF3)2]
-6.7
5. H-Y[dA]GF[Met(O)]PLW-{OBzl(3,5-(CF3)2)} (also: TFA salt, TFA salt; also called TY023) [H-Tyr-D-Ala-Gly-Phe-Met(O)-Pro-Leu-Trp-O-3,5-Bzl(CF3)2]
-7.92

-- ask Give the measured LogIC50 of YAGFXPLW (D-Ala at 2; Nle (norleucine, written X) at 5; C-terminal 3,5-bis(trifluoromethyl)benzyl ester, TFA salt; also called TY018) [H-Tyr-D-Ala-Gly-Phe-Nle-Pro-Leu-Trp-O-3,5-Bzl(CF3)2] .
-- reply -8.42

-- ask Give the measured LogIC50 of H-Y[dA]GFMPLW-{OBzl(3,5-(CF3)2)} (also: TFA salt, TFA salt; also called TY005; TY5) [H-Tyr-D-Ala-Gly-Phe-Met-Pro-Leu-Trp-O-3,5-Bzl(CF3)2] .
-- reply -8.22
